# Liver Microsome Stability (Multiple Species): Mouse - % Remaining after 30 min w/NADPH per entry
# assay.name: Liver Microsome Stability Assay (mouse)
# run.parameters: mouse liver microsomes, with NADPH, 1.0 uM compound
Express the result in % but write the number alone.

>>> recorded_number("CC(=O)Nc1ccc(N2CCC[C@@H]2c2csc(NC(=O)c3cccn3C[C@@H](C)CC#N)n2)cc1")
7.53

Next molecule, Liver Microsome Stability (Multiple Species): Mouse - % Remaining after 30 min w/NADPH to be filled in.
q: Look at this molecule and give its reported Liver Microsome Stability (Multiple Species): Mouse - % Remaining after 30 min w/NADPH. O=C(Nc1nc([C@H]2CCCN2c2ccc(CO)cc2)cs1)c1cccn1Cc1ccnc(F)c1
a: 4.74

* * *

# assay.name: Liver Microsome Stability Assay (mouse)
# run.parameters: mouse liver microsomes, with NADPH, 1.0 uM compound
Entries whose Liver Microsome Stability (Multiple Species): Mouse - % Remaining after 30 min w/NADPH is below 20% take MET; entries at or above 20% take NOT MET.

Some solved entries appear below for comparison.
>>> answer_label("O=C(Nc1nc([C@H]2CCCN2c2ccccc2)cs1)c1cccn1CC1CCOCC1 [Compound C55]")
"NOT MET"
>>> answer_label("CCC(CC#N)Cn1cccc1C(=O)Nc1nc([C@H]2CCCN2c2ccccc2)cs1 (some centres unmarked) [Compound C113]")
"MET"
>>> answer_label("O=C(Nc1nc(/C=C/c2cn(-c3ccccc3)cn2)cs1)c1cccn1Cc1ccnc(F)c1 [Compound B104]")
"MET"
>>> answer_label("O=C(Nc1nc(CCc2ccccn2)cs1)c1cccn1Cc1ccncc1 [Compound E8]")
"MET"

Next:
q: # TODO verify Liver Microsome Stability (Multiple Species): Mouse - % Remaining after 30 min w/NADPH < 20% strictly for this molecule: C#CCCn1cccc1C(=O)Nc1nc([C@H]2CCCN2c2ccccc2)cs1 [Compound C62]
a: NOT MET

* * *

# System: HER3-ss+4aa/Gaussia Luciferase
# assay.name: Dox-Induced Her3-ss-Gluc Assay
# Type: cell-based
# run.parameters: read-out: 24 hr Dox Inducible Her3(ss + 4)Gluc 293FRT/TO: Mean IC50; 24 hr Dox induction; 293FRT/TO cells
measured.parameter: IC50 (nM)
Form entry: value (nM) — number only.

q: Reported IC50, compound O=C(Nc1nc([C@H]2CCCN2c2ccc(OC3CCN(C(=O)CF)CC3)cc2)cs1)c1cccn1Cc1ccnc(F)c1 [Compound A90] : ____
a: 82.8

* * *

# assay.name: Liver Microsome Stability Assay (monkey)
# run.parameters: monkey liver microsomes, with NADPH, 1.0 uM compound
Recorded Liver Microsome Stability (Multiple Species): Monkey - % Remaining after 30 min w/NADPH values for a group of compounds are listed next.
Respond numerically; units are % and should not be typed.

>>> recorded_number("CN(C)C(=O)CCCCn1cccc1C(=O)Nc1nc([C@H]2CCCN2c2ccccc2)cs1 [Compound C60]")
0.09
>>> recorded_number("CC(=O)N1CCC(Nc2ccc(N3CCC[C@@H]3c3csc(NC(=O)c4cccn4Cc4ccnc(F)c4)n3)cc2)CC1 [Compound A147]")
0.94

q: I am curious: what Liver Microsome Stability (Multiple Species): Monkey - % Remaining after 30 min w/NADPH value has been reported for O=C(Nc1nc(/C=C/[C@H]2CCCCN2)cs1)c1cccn1Cc1ccncc1 [Compound E16] ?
a: 0.72

q: // repeat for [2H]c1c([2H])c([2H])c(N2CCC[C@@H]2c2csc(NC(=O)c3cccn3Cc3ccnc(F)c3)n2)c([2H])c1[2H] [Compound A94] and report
a: 0.9

q: Now this one: CNC(=O)N1CCC(Oc2ccc(N3CCC[C@@H]3c3csc(NC(=O)c4cccn4Cc4ccnc(F)c4)n3)cc2)CC1 [Compound A136]
a: 0.44

q: Then this compound: CC(=O)N(C)c1ccc(N2CCC[C@@H]2c2csc(NC(=O)c3cccn3Cc3ccncc3)n2)cc1 [Compound A47]
a: 0.06

q: COc1ccc(O[C@H]2CCC[C@H](c3csc(NC(=O)c4cccn4Cc4ccncc4)n3)C2)nc1 [Compound E41] , same question.
a: 0.34

q: Here is the next compound: COC(=O)Nc1ccc(N2CCC[C@@H]2c2csc(NC(=O)c3cc(C)cn3Cc3ccnc(F)c3)n2)nc1 [Compound A180]
a: 7.35

q: And what about the compound NC(=O)c1cc(C(=O)Nc2nc([C@H]3CCCN3c3ccccc3)cs2)n(Cc2ccnc(F)c2)c1 [Compound A152] ?
a: 28.1

q: Same lookup for CC1CCn2cnc(/C=C/c3csc(NC(=O)c4cccn4Cc4ccnc(F)c4)n3)c2C1 (stereo not drawn) [Compound B97] , please.
a: 0.13

q: Note, next up: O=C(Nc1nc([C@H]2CCCN2c2ccccc2)cs1)c1cccn1CCCCc1nnn[nH]1 [Compound C4]
a: 70.3
